// data source = paper PMC6066988

# MEASURED TARGET: DNA topoisomerase I (MtbTopoI) (Mycobacterium tuberculosis, UniProt P9WG49)
# Construct: gene topA
# Sequence (P9WG49 whole entry): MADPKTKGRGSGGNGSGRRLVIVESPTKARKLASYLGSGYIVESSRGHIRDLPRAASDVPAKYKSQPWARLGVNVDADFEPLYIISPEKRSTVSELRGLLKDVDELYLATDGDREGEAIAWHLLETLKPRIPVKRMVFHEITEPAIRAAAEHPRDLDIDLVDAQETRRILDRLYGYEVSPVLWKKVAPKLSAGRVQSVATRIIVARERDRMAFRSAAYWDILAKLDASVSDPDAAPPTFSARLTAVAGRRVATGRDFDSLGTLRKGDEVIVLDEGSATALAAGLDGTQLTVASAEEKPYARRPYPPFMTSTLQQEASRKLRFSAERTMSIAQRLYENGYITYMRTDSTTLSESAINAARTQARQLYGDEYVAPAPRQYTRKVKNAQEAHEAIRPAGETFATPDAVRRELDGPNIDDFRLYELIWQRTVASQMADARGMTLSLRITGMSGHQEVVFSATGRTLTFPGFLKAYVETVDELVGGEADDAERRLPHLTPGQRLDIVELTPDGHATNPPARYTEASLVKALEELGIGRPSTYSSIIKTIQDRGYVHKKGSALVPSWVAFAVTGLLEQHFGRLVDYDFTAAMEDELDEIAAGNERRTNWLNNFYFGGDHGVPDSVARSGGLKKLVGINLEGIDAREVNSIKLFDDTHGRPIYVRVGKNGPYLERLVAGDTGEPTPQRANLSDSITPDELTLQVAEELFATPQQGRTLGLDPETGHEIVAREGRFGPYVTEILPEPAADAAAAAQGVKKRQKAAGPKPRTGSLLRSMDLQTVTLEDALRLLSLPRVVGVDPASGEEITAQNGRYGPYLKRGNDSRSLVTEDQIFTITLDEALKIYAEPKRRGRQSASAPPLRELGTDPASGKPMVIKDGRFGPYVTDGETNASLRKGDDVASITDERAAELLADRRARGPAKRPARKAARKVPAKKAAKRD
# ASSAY SUMMARY: […]; also inhibits cleavage of a 32-mer single-stranded DNA
# Format: biochemical
pIC50: −log10 of the molar value.

[
  {
    "STRUCTURE STRING": "CNCCc1cc2c(c3c1ccc1cc4c(cc13)OCO4)OCO2",
    "MEASURED TARGET": "DNA topoisomerase I (MtbTopoI) (Mycobacterium tuberculosis, UniProt P9WG49)",
    "pIC50": 5.08
  }
]

---

# MEASURED TARGET: DNA topoisomerase I (MtbTopoI) (Mycobacterium tuberculosis, UniProt P9WG49)
# Construct: gene topA
# Assay type: biochemical

[
  {
    "MOLECULE": "CN(C)CCc1cc2c(c3c1ccc1cc4c(cc13)OCO4)OCO2 [N-SCN, N-methyl-seconeolitsine]",
    "MEASURED TARGET": "DNA topoisomerase I (MtbTopoI) (Mycobacterium tuberculosis, UniProt P9WG49)",
    "IC50": "5.6 µM"
  }
]
